Each record here notes measured Relative binding affinity (%).
- TESTED TARGET: T1, interleukin-2 beta receptor (SYMANSIS, #4122H) to which a human immunoglobulin Fc region was linked (UniProt P14784 27-239, limits assumed)
- T1 construct: Bought receptor-Fc, captured on anti-human immunoglobulin antibody; also called IL-2Rβ; CD122; not shown: human immunoglobulin Fc region
- T1 sequence (looked up): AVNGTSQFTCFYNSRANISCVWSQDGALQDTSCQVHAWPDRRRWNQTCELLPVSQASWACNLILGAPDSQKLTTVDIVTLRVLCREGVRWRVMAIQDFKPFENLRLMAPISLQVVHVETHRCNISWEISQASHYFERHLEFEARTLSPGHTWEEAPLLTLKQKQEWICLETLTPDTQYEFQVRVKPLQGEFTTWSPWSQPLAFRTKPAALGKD
- TEST: SPR (Biacore T200); receptor-Fc captured on anti-human Ig CM5 chip, analog flowed; relative to analog 1 = 100%
Answer in %, number only, no unit symbol.

Below are worked cases with known answers.
- BINDER: "interleukin-2 analog 71 (ligand) PTSSSTKKTQLQLEHLLLDLQMILNGINNYKNPKLTAMLTKKFYMPKKATELKHLQCLEEELKPLEEVLNLAQSKNFHFEPRDVVSNINVFVLELKGSETTFMCEYADETATIVEFLNRWITFSQSIISTLT"
  ASSAY READOUT: "Relative binding affinity (%)"
  ENDPOINT VALUE: 17100
- BINDER: "interleukin-2 analog 96 (ligand) PTSSSTKKTQLQLEHLLLDLQMILNGINNYKNPKLTRMLTFKFYMPKKATELKHLQCLEEELKPLEEGLNLAASKNFHFEPRDVVSNINVFVLELKGSETTFMCEYADETATIVEFLNRWITFSQSIISTLT"
  ASSAY READOUT: "Relative binding affinity (%)"
  ENDPOINT VALUE: 229
- BINDER: "interleukin-2 analog 12 (ligand) PTSSSTKKTQLQLEHLLLDLQMILNGINNYKNPKLTAMLTKKFYMPKKATELKHLQCLEEELKPLEEVLNLAQSKNFHLRPRDLISNINVIVLELKGSETTFMCEYADETATIVEFLNRWITFSQSIISTLT"
  ASSAY READOUT: "Relative binding affinity (%)"
  ENDPOINT VALUE: 166

Next binder, please.
Noted for interleukin-2 analog 94 (ligand) PTSSSTKKTQLQLEHLLLDLQMILNGINNYKNPKLTRMLTFKFYMPKKATELKHLQCLEEELKPLEEVLNLAQSKNFHFEPRDVVSNINVFVFEFKGSETTFMCEYADETATIVEFLNRWITFSQSIISTLT : its Relative binding affinity (%) reads 35.5
